# Test system: HCC 2998
# procedure text: NCI tumour cell line growth inhibition, 48 h
Activity calls are given as the source filed them. No stated cut-off is given here; in the data, active = GI50 up to about 1.1 µM and inactive = higher.
Classes used: True for active, False for inactive

compound	group label
Cc1n[nH]/c(=N\S(=O)(=O)c2ccc(/N=N/c3c(O)c(C(=O)O)cc4ccccc34)cc2)s1	False
CC1=CC(C)C(C)N(CCNC(=O)Nc2ccccc2)c2ccccc21 (configuration not stated)	False
CN(C)CCN1Nc2c3ccccc3nc3c(C(=O)NCCCN(C)CCCNC(=O)c4ccc5c6c(c7ccccc7nc46)NN5CCN(C)C)ccc1c23	True
CC[C@H](CCCC[C@H]1CC[C@@H]2CC(=O)C[C@H]12)OC	False
CCOC(=O)/C=C/c1c(C)[nH]c(=O)[nH]c1=O	False
Cc1cn(CC2(CO)CCC2)c(=O)[nH]c1=O	False
N#Cc1cc([N+](=O)[O-])ccc1NC(=O)C(F)(F)F	False
O=C(/N=C1/OC(CN2CCOCC2)CN1C(=O)Nc1ccccc1)Nc1ccccc1 (configuration not stated)	False
COc1cc(/C=N/N=C2NCCCCN2)ccc1O	False
O=c1[nH]c2nc3ccccc3c(=O)n2/c1=C/c1ccc(Cl)cc1	False
Cc1cccc(NC(=O)CCl)c1	False
Cc1csc2nc(-c3ccncc3)cn12	False
O[C@@]1(c2cccs2)c2cccc(Cl)c2[C@](O)(c2cccs2)c2cccc(Cl)c21	False
COc1c(Br)cc(/C=C(\C#N)c2cccnc2)cc1Br	False
O=S1(=O)OCCOS(=O)(=O)C1Cc1ccccc1	False
CN1c2ccccc2N(C(=O)c2ccc(Cl)cc2)C(CC(=O)O)c2cccn21 (configuration not stated)	False
COc1cc(C2c3cc4c(cc3OC(O)C2C)OCO4)cc(OC)c1O (configuration not stated)	False
CC1(C)N=C(N)N=C(N)N1c1ccc(OCC(=O)Nc2cccc(S(=O)(=O)F)c2)c(Cl)c1	False
CC(C)Oc1cccc(N2C(NCCc3c[nH]c4ccccc34)=Nc3ccncc3S2(=O)=O)c1	False
O=C1CCCC/C(=C/c2ccccc2)N1	False
CC(C)=CCC/C(C)=C/CCC1(C)C=Cc2c(c3ccccc3oc2=O)O1 (configuration not stated)	False
C/C(=C\c1csc(C)n1)[C@@H]1C[C@@H]2O[C@@H]2CCC[C@H](C)[C@H](O)[C@@H](C)C(=O)C(C)(C)[C@@H](O)CC(=O)O1.C/C(=C\c1csc(C)n1)[C@@H]1C[C@@H]2O[C@]2(C)CCC[C@H](C)[C@H](O)[C@@H](C)C(=O)C(C)(C)[C@@H](O)CC(=O)O1	True
Cc1ccc2ccccc2c1CSc1nc(N)nc2c1ncn2CC(C)C	False
CCNc1cnc2c(n1)c(=O)n(C)c(=O)n2C	False
Cc1cc2c(C)n(Cc3ccc(Cl)cc3Cl)nc2c(C#N)c1C	False
O=c1/c(=C/c2ccccc2O)sc2nc3ccccc3n12	False
Oc1cc(-c2ccco2)nc2cc3c(cc12)OCO3	False
CCOC1(OCC)C2C=CC1C(COS(=O)(=O)c1ccc(C)cc1)C2COS(=O)(=O)c1ccc(C)cc1 (configuration not stated)	False
C[C@@H]1CC[C@@]2(NC1)O[C@H]1C[C@H]3[C@@H]4CC[C@H]5C[C@@H](O)CC[C@]5(C)[C@H]4CC[C@]3(C)[C@H]1[C@@H]2C	False
CNS(=O)(=O)NN(C)S(=O)(=O)c1ccc(F)cc1	False
CC1=C(C(=O)OCCc2ccc([N+](=O)[O-])cc2)C(c2cccc([N+](=O)[O-])c2)C(C(=O)OC(C)C)=C(C)N1 (configuration not stated)	False
Oc1ccc2ccccc2c1/N=N/c1cccc2ccccc12	False
